reported endpoint: melting point

Known melting point results, listed for orientation:
{"columns": ["molecule", "melting point"],
 "data": [
  ["CN(C1CCCOc2ccccc21)S(C)(=O)=O (stereo not drawn) [Example 8]", "143 to 145 °C"],
  ["CCc1ccc(S(=O)(=O)N[C@@H]2c3cc([N+](=O)[O-])ccc3CCC[C@H]2O)cc1 (relative stereo) [Example 20]", "159 to 161 °C"],
  ["O=S(=O)(N[C@@H]1c2ccccc2CCC[C@H]1O)c1ccccc1 (relative stereo) [Example 16]", "128 to 128.2 °C"],
  ["O=S(=O)(N[C@@H]1c2ccccc2CCC[C@H]1O)c1ccc(Cl)cc1 (relative stereo) [Example 19]", "172 to 173 °C"],
  ["Cc1ccc(S(=O)(=O)N[C@@H]2c3ccccc3CCC[C@H]2O)cc1 (relative stereo) [Example 17]", "124.5 to 125.1 °C"]
]}

Turning to the following molecule.
Requested field: melting point. Item: COc1ccc(S(=O)(=O)N[C@@H]2c3ccccc3CCC[C@H]2O)cc1 (relative stereo) [Example 18]
140 to 141 °C
